Where do these numbers come from? They come from patent US20240239892A1.

# assayed target: T1, PD-1 (analyte of the SPR assay of Example 3) (human, UniProt Q15116 21-167, limits assumed)
# T1 construct: also called human PD-1
# T1 sequence (Q15116 21-167 limits assumed): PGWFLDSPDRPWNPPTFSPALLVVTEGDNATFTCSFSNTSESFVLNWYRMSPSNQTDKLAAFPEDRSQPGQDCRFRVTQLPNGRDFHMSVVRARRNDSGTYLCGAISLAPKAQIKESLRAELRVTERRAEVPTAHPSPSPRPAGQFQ
# measurement notes: SPR (Biacore 8K), antibody captured by anti-human Fc, PD-1 as analyte
measurement kind: kon

- binder: "anti-PD-1 antibody VH7+VL6 (antibody, human IgG1, kappa, V domains shown, also called HC2 + LC2) VH: EVQLVESGGGLVQPGGSLRLSCAASGFTFSSYGMSWVRQAPGKGLEWVAIISGGGRDIYYLDSVKGRFTISRDNSKNNLYLQMNSLRAEDTAVYYCSSPIYDAYSFAYWGQGTLVTVSS VL: EIVLTQSPATLSVSPGERATLSCRASQTISNNLHWYHQKPGQAPRLLIKYASQSISGIPSRFSGSGSGTDFTLTISSLQSEDFAVYFCQQSYSWPLTFGGGTKLEIKR"
  result: "154000 M⁻¹ s⁻¹"
- binder: "Chimeric VH + VL (antibody, human IgG1, kappa, V domains shown, also called Parental mouse VH+VL combined with human Fc; parental antibody) VH: EVKLVESGGGLVKPGGSLKLSCAASGFTFSSYGMSWVRQTPEKRLEWVAIISGGGRDIYYLDSVKGRFTISRDNAKNNLYLQMSSLRSEDTAFYYCSSPIYDAYSFAYWGQGTLVTVSA VL: DIVLVQSPATLSVTPGDSVSLSCRASQTISNNLHWYHQKSHESPRLLIKYASQSISGIPSRFSGSGSGTDFTLSINSVETEDFGMYFCQQSYSWPLTFGAGTNLELKR"
  result: "207000 M⁻¹ s⁻¹"
- binder: "VH7 + VL1 (antibody, human IgG1, kappa, V domains shown, Humanized full-length IgG expressed in HEK293; also called HC2 + LC1) VH: EVQLVESGGGLVQPGGSLRLSCAASGFTFSSYGMSWVRQAPGKGLEWVAIISGGGRDIYYLDSVKGRFTISRDNSKNNLYLQMNSLRAEDTAVYYCSSPIYDAYSFAYWGQGTLVTVSS VL: EIVMTQSPATLSVSPGERATLSCRASQTISNNLHWYQQKPGQAPRLLIYYASQSISGIPARFSGSGSGTEFTLTISSLQSEDFAVYYCQQSYSWPLTFGGGTKLEIKR"
  result: "104000 M⁻¹ s⁻¹"
- binder: "VH6 + VL1 (antibody, human IgG1, kappa, V domains shown, Humanized full-length IgG expressed in HEK293; For SPR it was captured from culture medium through its Fc; also called HC1 + LC1) VH: EVQLVESGGGLVQPGGSLRLSCAASGFTFSSYGMSWVRQAPGKRLEWVAIISGGGRDIYYLDSVKGRFTISRDNSKNTLYLQMNSLRAEDTAVYYCSSPIYDAYSFAYWGQGTLVTVSS VL: EIVMTQSPATLSVSPGERATLSCRASQTISNNLHWYQQKPGQAPRLLIYYASQSISGIPARFSGSGSGTEFTLTISSLQSEDFAVYYCQQSYSWPLTFGGGTKLEIKR"
  result: "113000 M⁻¹ s⁻¹"
